- ASSAY_TARGET: T1, His9G-tagged cynomolgus CD27 recombinant protein (cynomolgus, limits assumed)
- T1 construct: In-house, transient transfection of HEK293 cells; also called Cyno CD27/His
- T1 chain: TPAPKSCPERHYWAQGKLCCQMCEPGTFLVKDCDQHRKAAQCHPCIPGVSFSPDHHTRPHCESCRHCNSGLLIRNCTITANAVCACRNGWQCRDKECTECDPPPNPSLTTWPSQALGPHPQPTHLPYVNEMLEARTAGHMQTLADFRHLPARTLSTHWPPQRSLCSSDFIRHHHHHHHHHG
- ASSAY_COMMENT: SPR Biacore 4000, antibody captured on anti-human Fc, His9G-tagged CD27 injected, 1:1 fit;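 also: Double-referenced SPR (blank anti-Fc surface and buffer injection subtracted), KD derived from association and dissociation rate constants, with human and cynomolgus CD27 as analytes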
Reported pKd values follow for various binders
pKd here: minus log base 10 of the concentration, concentration in moles per litre.

Guide cases for pKd, answers given:
BINDER	pKd
hCD27.131A VH6VL7 huIgG4 (antibody, V domains shown) VH: EIQLVQSGAEVKKPGASVKVSCKASGYTFTNYGMNWVKQAPGQGLKWMGWINTNTGEPTYAEEFKGRFTFTLDTSISTAYMELSSLRSEDTAVYYCAREGDAMDYWGQGTTVTVSS VL: EIVLTQSPATLSLSPGERATLSCSASSSVSYMHWYQQKPGQAPKRWIYDTSKLASGVPARFSGSGSGTSYSLTISSLEPEDFATYYCQQWNSYPFTFGQGTKLEIK	7.09
hCD27.131A VH7VL8 huIgG1 (antibody, V domains shown) VH: EIQLVQSGAEVKKPGASVKISCKASGYTFTNYGMNWVKQAPGQGLKWMGWINTNTGEPTYAEEFKGRFTFTLDTSATTAYLEISSLRSEDTAVYYCAREGDAMDYWGQGTTVTVSS VL: EIVLTQSPATLSASPGERVTLSCSASSSVSYMHWYQQKPGQAPKRWIYDTSKLASGVPARFSGSGSGTDYSLTISSMEPEDFAVYYCQQWNSYPFTFGQGTKLEIK	7.44

query: Entry under review: hCD27.131A VH7VL8 huIgG4 (antibody, V domains shown) VH: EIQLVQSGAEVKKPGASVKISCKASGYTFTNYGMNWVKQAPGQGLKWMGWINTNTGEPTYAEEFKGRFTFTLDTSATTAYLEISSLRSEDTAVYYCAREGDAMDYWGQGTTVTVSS VL: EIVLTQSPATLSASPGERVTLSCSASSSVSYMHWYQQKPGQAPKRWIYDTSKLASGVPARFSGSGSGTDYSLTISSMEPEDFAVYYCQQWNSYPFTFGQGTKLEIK . Reported pKd?
result: 7.40

Each recorded value in this set is attributed to patent US20180086841A1.
